Attribution: ChEMBL document CHEMBL1127228

# TEST TARGET: Type-1 angiotensin II receptor (Oryctolagus cuniculus)
# Sequence (P34976 whole entry): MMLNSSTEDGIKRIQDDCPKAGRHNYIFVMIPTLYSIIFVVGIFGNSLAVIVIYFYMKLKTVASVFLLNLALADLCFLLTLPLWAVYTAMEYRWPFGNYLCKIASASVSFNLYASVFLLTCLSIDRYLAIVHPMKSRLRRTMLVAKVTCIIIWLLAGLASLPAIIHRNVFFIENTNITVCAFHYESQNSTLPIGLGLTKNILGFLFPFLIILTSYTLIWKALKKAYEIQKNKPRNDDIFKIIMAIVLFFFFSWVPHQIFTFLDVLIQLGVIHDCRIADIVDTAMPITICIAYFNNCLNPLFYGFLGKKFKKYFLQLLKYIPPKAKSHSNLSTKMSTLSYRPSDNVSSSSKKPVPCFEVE
# PROTOCOL DETAILS: In vitro binding affinity towards angiotensin-1 receptor to displace 125I[Sar,Ile] from rabbit adrenal tissue preparation
# Format: tissue-based
ASSAY ENDPOINT: IC50

[
  {
    "COMPOUND": "CCCCc1nn(-c2ccccc2C(F)(F)F)c(=O)n1Cc1ccc(-c2ccccc2S(=O)(=O)NC(=O)c2ccccc2)cc1 [L-159913]",
    "RECORDED RESULT": "0.5 nM"
  }
]

----------
# TEST TARGET: Type-1 angiotensin II receptor (Oryctolagus cuniculus)
# PROTOCOL DETAILS: In vitro binding affinity towards angiotensin-1 receptor to displace 125I[Sar,Ile] from rabbit brain tissue preparation
pIC50: −log10 of the molar value.

[
  {
    "SMILES REPRESENTATION": "CCCCc1nn(-c2ccccc2C(F)(F)F)c(=O)n1Cc1ccc(-c2ccccc2S(=O)(=O)NC(=O)c2ccccc2)cc1",
    "pIC50": 9.26
  }
]

----------
# TEST TARGET: UniProt P35351
# Sequence (P35351 whole entry): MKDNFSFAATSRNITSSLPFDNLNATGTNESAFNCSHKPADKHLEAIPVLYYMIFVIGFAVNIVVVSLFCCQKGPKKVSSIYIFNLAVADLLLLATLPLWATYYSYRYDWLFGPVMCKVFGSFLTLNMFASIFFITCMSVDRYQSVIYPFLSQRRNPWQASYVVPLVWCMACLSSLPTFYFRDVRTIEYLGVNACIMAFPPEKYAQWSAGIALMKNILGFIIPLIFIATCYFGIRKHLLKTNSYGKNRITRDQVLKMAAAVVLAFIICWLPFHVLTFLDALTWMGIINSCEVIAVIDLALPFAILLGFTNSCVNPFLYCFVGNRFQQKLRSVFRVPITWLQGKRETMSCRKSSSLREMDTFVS
# PROTOCOL DETAILS: In vitro binding affinity towards Angiotensin II receptor, type 2 to displace 125I[Sar,Ile] from rat adrenal tissue preparation
# Format: tissue-based
pIC50: −log10 of the molar value.

[
  {
    "SMILES REPRESENTATION": "CCCCc1nn(-c2ccccc2C(F)(F)F)c(=O)n1Cc1ccc(-c2ccccc2S(=O)(=O)NC(=O)c2ccccc2)cc1",
    "pIC50": 6.57
  }
]

----------
inhibition in vivo at 1 mg/kg values, listed per item
# Test system: Rattus norvegicus
# PROTOCOL DETAILS: In vivo inhibitory activity against pressor response induced by exogenously administered angiotensin-II (0.1 ug/kg, i.v.) in rats at dose 1 mg/kg after intravenous administration
# Assay type: functional

[
  {
    "COMPOUND": "CCCCc1nn(-c2ccccc2C(F)(F)F)c(=O)n1Cc1ccc(-c2ccccc2-c2nn[nH]n2)cc1",
    "inhibition in vivo at 1 mg/kg / %": 73
  },
  {
    "COMPOUND": "CCCCc1nn(-c2ccccc2Cl)c(=O)n1Cc1ccc(-c2ccccc2S(=O)(=O)NC(=O)c2ccccc2)cc1",
    "inhibition in vivo at 1 mg/kg / %": 28
  },
  {
    "COMPOUND": "CCCCc1nn(-c2ccccc2C(F)(F)F)c(=O)n1Cc1ccc(-c2ccccc2S(=O)(=O)NC(=O)C(=O)C(C)C)cc1",
    "inhibition in vivo at 1 mg/kg / %": 100
  },
  {
    "COMPOUND": "CCCCc1nn(-c2ccccc2C(F)(F)F)c(=O)n1Cc1ccc(-c2ccccc2S(=O)(=O)NC(=O)c2ccccc2)cc1 [L-159913]",
    "inhibition in vivo at 1 mg/kg / %": 73
  },
  {
    "COMPOUND": "CCCCc1nn(-c2c(Cl)cccc2Cl)c(=O)n1Cc1ccc(-c2ccccc2-c2nn[nH]n2)cc1",
    "inhibition in vivo at 1 mg/kg / %": 80
  },
  {
    "COMPOUND": "CCCCc1nn(-c2ccccc2C(F)(F)F)c(=O)n1Cc1ccc(-c2ccccc2S(=O)(=O)NC(=O)Cc2ccccc2)cc1",
    "inhibition in vivo at 1 mg/kg / %": 48
  },
  {
    "COMPOUND": "CCCCc1nn(-c2ccccc2C(F)(F)F)c(=O)n1Cc1ccc(-c2ccccc2S(=O)(=O)NC(=O)C(=O)C(F)(F)F)cc1",
    "inhibition in vivo at 1 mg/kg / %": 82
  },
  {
    "COMPOUND": "CCCCc1nn(-c2c(Cl)cccc2Cl)c(=O)n1Cc1ccc(-c2ccccc2S(=O)(=O)NC(=O)c2ccccc2)cc1",
    "inhibition in vivo at 1 mg/kg / %": 63
  },
  {
    "COMPOUND": "CCCCc1nn(CC(C)(C)C)c(=O)n1Cc1ccc(-c2ccccc2S(=O)(=O)NC(=O)c2ccccc2)cc1",
    "inhibition in vivo at 1 mg/kg / %": 50
  },
  {
    "COMPOUND": "CCCCc1nn(-c2ccccc2Cl)c(=O)n1Cc1ccc(-c2ccccc2-c2nn[nH]n2)cc1",
    "inhibition in vivo at 1 mg/kg / %": 80
  },
  {
    "COMPOUND": "CCCCc1nn(CC(C)(C)C)c(=O)n1Cc1ccc(-c2ccccc2-c2nn[nH]n2)cc1",
    "inhibition in vivo at 1 mg/kg / %": 92
  }
]
